Ref: ChEMBL document CHEMBL1955725

Assay Method Text: Terminal elimination half life in Swiss outbred mouse at 0.4 mg/kg, po
Assay type: ADME, organism-based
Set-up: dose 0.4 mg/kg, route oral
Condition Parameters: in vivo, read-out: beta t1/2 (converted)
Record form. Attribute: half-life. Fill in for each entry.
Write the quantity with the unit trailing the number.

Asked: Give the value of half-life reported for the following: Cc1cc(Nc2ccc(S(F)(F)(F)(F)F)cc2)n2nc(C(C)(F)F)nc2n1 [DSM-265]
Given back: 4.1 h

Asked: Write down half-life measured for item Cc1cc(Nc2ccc(C(F)(F)F)cc2)n2nc(C(C)(F)F)nc2n1
Given back: 2.1 h

====

Assay Method Text: Lipophilicity, log D of the compound at pH 7.4
Format: physicochemical
Condition Parameters: buffer
Property Name: logD
Reply briefly: the number, and no unit.

Asked: Retrieve logD measured for CCc1nc2nc(C)cc(Nc3cccc(Cl)c3)n2n1 and print it.
Given back: 2.8

Asked: Query logD for CCc1nc2nc(C)cc(Nc3ccc(C(F)(F)F)cc3)n2n1
Given back: 3

Asked: Find the measured logD of Cc1cc(Nc2ccc(Cl)cc2)n2nc(C(C)C)nc2n1 and report it.
Given back: 3.2

Asked: Input Cc1cc(Nc2ccc(C(F)(F)F)cc2)n2nc(C(C)(F)F)nc2n1 , output reported logD.
Given back: 3.3

Asked: Return logD (reported value) for this molecule: CSc1nc2nc(C)cc(Nc3ccc(C(F)(F)F)cc3)n2n1
Given back: 3.2

Asked: Identify logD associated with the molecule COCCc1nc2nc(C)cc(Nc3ccc(C(F)(F)F)cc3)n2n1
Given back: 2.7

Asked: Complete the entry with logD for CCC(F)(F)c1nc2nc(C)cc(Nc3ccc(C(F)(F)F)cc3)n2n1
Given back: 3.6

Asked: Give the reported logD for this molecule. Cc1cc(Nc2ccc(C(F)(F)F)cc2)n2nc(CCO)nc2n1
Given back: 2.2

Asked: Quote logD reported for Cc1cc(Nc2ccc(C(F)(F)F)cc2)n2nc(C3CC3)nc2n1 please.
Given back: 3.3

Asked: Answer with the recorded logD of COCc1nc2nc(C)cc(Nc3ccc(C(F)(F)F)cc3)n2n1 only.
Given back: 2.5

Asked: # return recorded logD for entry CCc1nc2nc(C)cc(Nc3ccc(Cl)cc3)n2n1
Given back: 2.8

====

So I've got a bunch of molecules here, and I need their Tmax values.
Assay Method Text: in vivo
Condition Parameters: Swiss outbred, mouse, po, 2 mg/kg
Dear colleague, please return just the value in h, with no unit written.

Asked: Supply measured Tmax of Cc1cc(Nc2ccc(S(F)(F)(F)(F)F)cc2)n2nc(C(C)(F)F)nc2n1 in your reply.
Given back: 1

Asked: Look up and state reported Tmax for Cc1cc(Nc2ccc(C(F)(F)F)cc2)n2nc(C(C)(F)F)nc2n1
Given back: 1

====

Assay Method Text: in vivo
Condition Parameters: Sprague-Dawley, rat, po, 46.7 mg/kg
Property Name: Tmax (h)
Quick reminder: number only, in h, skip the unit.

Asked: Provide one value: measured Tmax of Cc1cc(Nc2ccc(S(F)(F)(F)(F)F)cc2)n2nc(C(C)(F)F)nc2n1 [DSM-265]
Given back: 17

====

Assay Method Text: in vivo
Condition Parameters: NOD-SCID IL-2Rgamma-null, mouse, po, 7 mg/kg
Property Name: Tmax (h)
Report as a plain number; the unit h is understood.

Asked: Read the entry Cc1cc(Nc2ccc(S(F)(F)(F)(F)F)cc2)n2nc(C(C)(F)F)nc2n1 and write its reported Tmax.
Given back: 6.7

====

Assay Method Text: Terminal elimination half life in Sprague-Dawley rat at 2 mg/kg, po
Type: ADME, organism-based
Set-up: dose 2 mg/kg, route oral
Condition Parameters: in vivo, read-out: beta t1/2 (converted)
Property Name: half-life (h)
Respond with the bare value in h.

Asked: State, in one line, measured half-life of Cc1cc(Nc2ccc(C(F)(F)F)cc2)n2nc(C(C)(F)F)nc2n1
Given back: 6

====

Test system: Plasma
Assay Method Text: Plasma protein binding in human by chromatographic method
Type: ADME, cell-free
Property Name: PPB

Asked: Give Plasma PPB for the following compound: CCc1nc2nc(C)cc(Nc3cccc(Cl)c3)n2n1
Given back: 86.7%

Asked: Specify PPB for COCc1nc2nc(C)cc(Nc3ccc(C(F)(F)F)cc3)n2n1 , system Plasma.
Given back: 75.6%

Asked: Quote Plasma PPB for entry Cc1cc(Nc2ccc(S(F)(F)(F)(F)F)cc2)n2nc(C(C)(F)F)nc2n1 [DSM-265] .
Given back: 97.4%

Asked: Enter measured PPB, system Plasma, for the compound shown: Cc1cc(Nc2ccc(C(F)(F)F)cc2)n2nc(C(C)(F)F)nc2n1
Given back: 90.4%

Asked: Enter recorded PPB with Plasma for COCc1nc2nc(C)cc(Nc3ccc(S(F)(F)(F)(F)F)cc3)n2n1 here.
Given back: 91.7%

Asked: State recorded PPB with Plasma, entry Cc1cc(Nc2ccc(Cl)cc2)n2nc(C(C)(F)F)nc2n1 , no comment.
Given back: 87.9%

Asked: Find PPB for CSc1nc2nc(C)cc(Nc3ccc(C(F)(F)F)cc3)n2n1 on Plasma and write it down.
Given back: 91.8%

Asked: Give Plasma PPB for the following compound: CCC(F)(F)c1nc2nc(C)cc(Nc3ccc(S(F)(F)(F)(F)F)cc3)n2n1
Given back: 97.7%

Asked: Find PPB for CCC(F)(F)c1nc2nc(C)cc(Nc3ccc(C(F)(F)F)cc3)n2n1 on Plasma and write it down.
Given back: 93.2%

Asked: System Plasma. Read-out PPB. Item Cc1cc(Nc2ccc(C(F)(F)F)cc2)n2nc(CCO)nc2n1 . Report value.
Given back: 67%

Asked: Enter measured PPB, system Plasma, for the compound shown: CCc1nc2nc(C)cc(Nc3ccc(S(F)(F)(F)(F)F)cc3)n2n1
Given back: 96.4%

====

Test system: Liver
Assay Method Text: Intrinsic clearance in mouse liver microsomes
Assay type: ADME, Microsome
Property Name: Intrinsic clearance (µL/min/mg)
Write the number in µL/min/mg without appending the unit.

Asked: Indicate the recorded Intrinsic clearance value for this compound: CSc1nc2nc(C)cc(Nc3ccc(C(F)(F)F)cc3)n2n1
Given back: 76.9

Asked: Give reported Intrinsic clearance value for Cc1cc(Nc2ccc(C(F)(F)F)cc2)n2nc(C(C)(F)F)nc2n1
Given back: 10.1

Asked: Return value of Intrinsic clearance for input COCCc1nc2nc(C)cc(Nc3ccc(C(F)(F)F)cc3)n2n1 , no commentary.
Given back: 14.3

Asked: Please report the measured Intrinsic clearance for CCC(F)(F)c1nc2nc(C)cc(Nc3ccc(S(F)(F)(F)(F)F)cc3)n2n1
Given back: 6.7

Asked: State, in one line, measured Intrinsic clearance of CCc1nc2nc(C)cc(Nc3ccc(Cl)cc3)n2n1
Given back: 63.1

====

Tested on: Liver microsomes
Assay Method Text: Intrinsic clearance in human liver microsomes
Type: ADME, Microsome
Property Name: Intrinsic clearance (µL/min/mg)
Express the result in µL/min/mg but write the number alone.

Asked: Hello, please tell me recorded Intrinsic clearance for this one: COCc1nc2nc(C)cc(Nc3ccc(C(F)(F)F)cc3)n2n1
Given back: 6.7

Asked: Retrieve Intrinsic clearance measured for COCCc1nc2nc(C)cc(Nc3ccc(S(F)(F)(F)(F)F)cc3)n2n1 and print it.
Given back: 11.5

====

Assay Method Text: in vivo
Condition Parameters: NOD-SCID IL-2Rgamma-null, mouse, po, 10 mg/kg
Property Name: Tmax (h)
Give the value, in units of h, as a plain number.

Asked: Determine from records and report Tmax for Cc1cc(Nc2cc(F)c(C(F)(F)F)c(F)c2)n2ncnc2n1
Given back: 2

====

Assay Method Text: in vivo
Condition Parameters: Sprague-Dawley, rat, po, 21.2 mg/kg
Property Name: Tmax (h)
Report the figure in h without appending any unit label.

Asked: Please report the measured Tmax for Cc1cc(Nc2ccc(C(F)(F)F)cc2)n2nc(C(C)(F)F)nc2n1
Given back: 3.25

====

Assay Method Text: Terminal elimination half life in Sprague-Dawley rat at 1 mg/kg, iv
Type: ADME, organism-based
Set-up: dose 1 mg/kg, route intravenous
Condition Parameters: in vivo, read-out: beta t1/2 (converted)
Property Name: half-life (h)
Write the value in h as a bare number.

Asked: Kindly indicate its recorded half-life. Item: Cc1cc(Nc2ccc(C(F)(F)F)cc2)n2nc(C(C)(F)F)nc2n1
Given back: 6.1

====

Assay Method Text: Cmax in Sprague-Dawley rat at 2.1 mg/kg, po
Format: ADME, organism-based
Parameters: dose 2.1 mg/kg, route oral
Condition Parameters: in vivo
Property Name: Cmax (nM)
The reply should be a number in nM, with the unit left off.

Asked: Provide Cmax value for the following molecule: Cc1cc(Nc2ccc(S(F)(F)(F)(F)F)cc2)n2nc(C(C)(F)F)nc2n1
Given back: 750

====

Assay Method Text: Volume of distribution in Sprague-Dawley rat at 1 mg/kg, iv
Assay type: ADME, organism-based
Design: dose 1 mg/kg, route intravenous
Condition Parameters: in vivo
Property Name: Vd (L/kg)
// return numeric value only (unit: L/kg, not printed)

Asked: Give recorded Vd. Cc1cc(Nc2ccc(C(F)(F)F)cc2)n2nc(C(C)(F)F)nc2n1
Given back: 3.3
